- Organism: Rattus norvegicus
- ASSAY EXPLANATION: Open TG-GATES - Regimen: Daily Repeat
- Format: toxicity, organism-based, Sprague-Dawley
- Design: regimen Daily Repeat, gender Male, age 6 weeks
- COND: in vivo, po, 1000 mg/kg, […], tissue Plasma, route gavage, dose level High, time 28 day
Mark not fulfilled for DBIL values under 0.06 mg/dL, and fulfilled for everything at or above.

{"MOLECULE": "COc1ccc2[nH]c([S+]([O-])Cc3ncc(C)c(OC)c3C)nc2c1 (stereo unspecified)", "GROUP": "fulfilled"}
{"MOLECULE": "CC(C)OC(=O)C(C)(C)Oc1ccc(C(=O)c2ccc(Cl)cc2)cc1 [FENOFIBRATE]", "GROUP": "not fulfilled"}
{"MOLECULE": "COC1=CC(=O)C[C@@H](C)[C@]12Oc1c(Cl)c(OC)cc(OC)c1C2=O", "GROUP": "fulfilled"}
{"MOLECULE": "CCOC(=O)CCC(=O)O[C@H]1[C@H](O[C@@H]2[C@@H](C)[C@H](O[C@H]3C[C@@](C)(OC)[C@@H](O)[C@H](C)O3)[C@@H](C)C(=O)O[C@H](CC)[C@@](C)(O)[C@H](O)[C@@H](C)C(=O)[C@H](C)C[C@@]2(C)O)O[C@H](C)C[C@@H]1N(C)C [ERYTHROMYCIN ETHYLSUCCINATE]", "GROUP": "not fulfilled"}
{"MOLECULE": "NC(N)=Nc1nc(CSCCC(N)=NS(N)(=O)=O)cs1", "GROUP": "fulfilled"}
{"MOLECULE": "CCOc1ccc(NC(=O)CC(C)O)cc1 (stereo unspecified)", "GROUP": "not fulfilled"}

* * *

- Species on record: Rattus norvegicus
- ASSAY EXPLANATION: Open TG-GATES - Regimen: Single
- Assay type: toxicity, organism-based, Sprague-Dawley
- Design: regimen Single, gender Male, age 6 weeks
- COND: in vivo, po, 1000 mg/kg, 6 h, tissue Plasma, route gavage, dose level High
# Ca listing for each entry below
METRIC: Ca (mg/dL)

{"MOLECULE": "COC1=CC(=O)C[C@@H](C)[C@]12Oc1c(Cl)c(OC)cc(OC)c1C2=O [GRISEOFULVIN]", "QUANTITY UNIT": "mg/dL", "RESULT VALUE": 10.8}
{"MOLECULE": "COc1ccc2[nH]c([S+]([O-])Cc3ncc(C)c(OC)c3C)nc2c1 (centres undefined) [OMEPRAZOLE]", "QUANTITY UNIT": "mg/dL", "RESULT VALUE": 10.2}
{"MOLECULE": "NC(N)=Nc1nc(CSCCC(N)=NS(N)(=O)=O)cs1 [FAMOTIDINE]", "QUANTITY UNIT": "mg/dL", "RESULT VALUE": 10.6}
{"MOLECULE": "CCOC(=O)CCC(=O)O[C@H]1[C@H](O[C@@H]2[C@@H](C)[C@H](O[C@H]3C[C@@](C)(OC)[C@@H](O)[C@H](C)O3)[C@@H](C)C(=O)O[C@H](CC)[C@@](C)(O)[C@H](O)[C@@H](C)C(=O)[C@H](C)C[C@@]2(C)O)O[C@H](C)C[C@@H]1N(C)C [ERYTHROMYCIN ETHYLSUCCINATE]", "QUANTITY UNIT": "mg/dL", "RESULT VALUE": 10.6}
